Recorded Emax for the following binders
Target: human CD3 on cells (human PBMC; Jurkat TCR/CD3 NFAT reporter cells) (human, UniProt P07766 23-207; P04234 22-171; P09693 23-182); further: unit not given here
Sequence (P07766 23-207, chain 1 of 3): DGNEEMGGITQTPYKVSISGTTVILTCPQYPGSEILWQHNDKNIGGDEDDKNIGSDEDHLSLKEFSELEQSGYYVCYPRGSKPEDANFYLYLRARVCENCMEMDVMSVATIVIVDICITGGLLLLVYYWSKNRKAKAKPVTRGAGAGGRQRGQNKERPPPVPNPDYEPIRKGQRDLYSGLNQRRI
Sequence (P04234 22-171, chain 2 of 3): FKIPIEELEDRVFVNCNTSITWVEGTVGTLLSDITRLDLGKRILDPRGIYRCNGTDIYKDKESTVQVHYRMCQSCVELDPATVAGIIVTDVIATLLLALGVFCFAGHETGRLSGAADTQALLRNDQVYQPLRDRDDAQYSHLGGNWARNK
Sequence (P09693 23-182, chain 3 of 3): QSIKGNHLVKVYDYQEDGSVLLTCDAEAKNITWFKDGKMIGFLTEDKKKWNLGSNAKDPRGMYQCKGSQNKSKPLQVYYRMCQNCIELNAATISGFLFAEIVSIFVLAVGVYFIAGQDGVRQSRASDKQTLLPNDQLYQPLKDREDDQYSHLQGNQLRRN
Experiment: cell-based or functional assay
Could you keep your reply to the number by itself?

>  <binder>
Hu155A9B1-4 (antibody, V domains shown, humanized mAb) VH: EVQLQESGPGLVKPSETLSLTCTVSGGSISSYNVHWVRQPPGKGLEWMGRVRYNGDTSYNSALKSRLTISRDTSKNQFSLKLSSVTAADTAVYYCTRGPYGGSSEPLFDYWGQGTMVTVSS VL: DIQMTQSPSSLSASVGDRVTITCKASQNINKYLNWYQQKPGKAPRLLIYTTNNLQTGVPSRFSGSGSGTDFTLTISSLQPEDFATYYCLQHNSGYTFGQGTKLEIK

>  <Emax>
752

$$$$

Then there is this binder:
Memo: Hu155A9B1-9 (antibody, V domains shown, humanized mAb) VH: EVQLQESGPGLVKPSETLSLTCTVSGGSISSYNVHWVRQPPGKGLEWMGRVRYNGDTSYNSALKSRLTISRDTSKNQFSLKLSSVTAADTAVYYCARGPYGGSSEPLFDYWGQGTMVTVSS VL: DIQMTQSPSSLSASVGDRVTITCKASQNINKYLNWFQQKPGKAPRLLIYTTNNLQTGIPSRFSGSGSGTDFTLTISSLQPEDFATYYCLQHNSGYTFGQGTKLEIK , reported Emax: 1770
